- target entity: Recombinant human Menin protein (2-610) / MLL polypeptide binding (Homo sapiens (Human), UniProt O00255)
- Sequence (O00255 2-610): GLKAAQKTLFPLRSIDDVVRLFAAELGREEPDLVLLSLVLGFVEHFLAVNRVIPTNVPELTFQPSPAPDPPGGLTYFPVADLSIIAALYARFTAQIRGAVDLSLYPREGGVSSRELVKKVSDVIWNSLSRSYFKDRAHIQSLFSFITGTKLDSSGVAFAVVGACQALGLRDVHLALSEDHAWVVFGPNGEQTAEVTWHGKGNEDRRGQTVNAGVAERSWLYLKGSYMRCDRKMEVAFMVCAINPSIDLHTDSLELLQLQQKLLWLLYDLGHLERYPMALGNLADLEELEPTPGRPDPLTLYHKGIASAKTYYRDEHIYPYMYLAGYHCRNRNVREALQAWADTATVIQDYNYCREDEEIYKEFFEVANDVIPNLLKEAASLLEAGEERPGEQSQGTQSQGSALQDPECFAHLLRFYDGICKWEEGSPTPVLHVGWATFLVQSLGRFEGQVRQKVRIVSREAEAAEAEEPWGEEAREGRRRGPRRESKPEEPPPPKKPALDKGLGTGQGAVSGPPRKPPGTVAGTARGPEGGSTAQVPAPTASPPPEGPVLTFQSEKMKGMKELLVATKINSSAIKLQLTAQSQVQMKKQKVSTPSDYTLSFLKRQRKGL
- experimental details: Menin and MLL protein binding at a molecular level (fluorescence polarization method)
- assay setup: inhibition of Menin / MLL polypeptide binding
pIC50: −log10 of the molar value.
Where pIC50 equals or exceeds 8, the correct label is Condition met; where it does not, the label is Condition not met.

[[record]]
compound_structure_string = "O=C(NC1CC1)N1CCC(CN2CCC3(CC2)CN(c2ncnnc2Oc2ccc(F)cc2)C3)CC1"
category = "Condition not met"


Q) Decide: is the reported value of pIC50 for CCN(C(=O)c1cc(F)ccc1Oc1nncnc1N1CC2(CCN(CC3CCN(c4cccnn4)CC3)CC2)C1)C(C)C equal to or greater than 8?
A) Condition met

Q) Reported pIC50 at or above 8? COc1cc(N2CCC(CN3CCC4(CC3)CN(c3ncnnc3Oc3ccc(Cl)cc3)C4)CC2)nnc1OC
A) Condition not met

Q) Could you please find out whether CCN(C(=O)c1cc(F)ccc1Oc1nncnc1N1CC2(CCN(Cc3ccc4nc(OC)ncc4c3)CC2)C1)C(C)C has pIC50 that meets 8 or exceeds it?
A) Condition not met

====

- target entity: Recombinant human Menin protein (2-610) / MLL polypeptide binding (Homo sapiens (Human), UniProt O00255)
- experimental details: Menin and MLL protein binding at a molecular level (fluorescence polarization method)
- assay setup: inhibition of Menin / MLL polypeptide binding
Measured IC50 values are reported for all entries that follow.
Reply numerically in nM, unit not repeated.

[[record]]
compound_structure_string = "CCN(C(=O)c1cc(F)ccc1Oc1nncnc1N1CC2(CCN(CC3CCN(c4ccnc(C(N)=O)c4)CC3)CC2)C1)C(C)C"
reported_measurement = 1.5


From here, focus on the item given below.
Q) What value of IC50 has been reported for the following compound? CCN(C(=O)c1cc(F)ccc1Oc1nncnc1N1CC2(CCN(CC3CCN(c4ccc(C(F)(F)F)nn4)CC3)CC2)C1)C(C)C
A) 1.7

====

Below, each entry is listed with its recorded GI50.
- System: MV-4-11 cells (human acute myelogenous leukemia cell line carrying MLL-AF4 mutation)
- experimental details: Cell proliferation assay, MV-4-11 (CellTiter-Glo)
- Format: cell-based
- assay setup: Homo sapiens, MV4-11, 72 h, MV-4-11 cells, 3 days treatment, CellTiter-Glo; read-out: GI50
- Description: Example 4 Cell Proliferation Assay MV-4-11 (ATCC, CRL-9591), a human acute myelogenous leukemia cell line carrying MLL-AF4 mutation. Cells were cultured in an IMDM medium containing 10% heat-inactivated fetal bovine serum (HIFBS) and supplemented with 50 μM β-mercaptoethanol. 2. […] On day 0 and day 3 of the treatment, 50 μL/well CTG reagent was added to the cell plate and shaken at room temperature in the dark for 10 min, and then the chemiluminescence value of each well was measured with Envision. […]
Enter your answer as a number in nM; do not include the unit.

[[record]]
molecule = "CCN(C(=O)c1cc(F)ccc1Oc1nncnc1N1CC2(CCN(CC3(N(C)CCOC)CC3)CC2)C1)C(C)C"
reported_measurement = 37

[[record]]
molecule = "CCN(C(=O)c1cc(F)ccc1Oc1nncnc1N1CC2(CCN(Cc3ccc4oc(C(=O)NC)c(C)c4c3)CC2)C1)C(C)C"
reported_measurement = 883

[[record]]
molecule = "CCN(C(=O)c1cc(F)ccc1Oc1nncnc1N1CC2(CCN(CC3CCN(C[C@@H](O)CC#N)CC3)CC2)C1)C(C)C"
reported_measurement = 97

[[record]]
molecule = "CCN(C(=O)c1cc(F)ccc1Oc1nncnc1N1CCC(C2(N(C)Cc3ccc4[nH]c(C#N)cc4c3C)CC2)C1)C(C)C (stereo not shown)"
reported_measurement = 257


Q) What value of GI50 has been reported for the following molecule? CCN(C(=O)c1cc(F)ccc1Oc1nncnc1N1CC2(CCN(CC3CCN(C(=O)C4CC(C)(C)C4)CC3)CC2)C1)C(C)C
A) 8

Q) Value lookup for GI50; key = CCN(C(=O)c1cc(F)ccc1Oc1nncnc1N1CC2(CCN(CC3(NCCOC)CC3)CC2)C1)C(C)C
A) 87

Q) Dear colleague, I am looking for the recorded GI50 of the following molecule: CCN(C(=O)c1cc(F)ccc1Oc1nncnc1N1CC2(CCN(Cc3ccc4[nH]c(C#N)c(C5=CCOCC5)c4c3C)CC2)C1)C(C)C
A) 18

====

- System: MV-4-11 cells (human acute myelogenous leukemia cell line carrying MLL-AF4 mutation)
- experimental details: Cell proliferation assay, MV-4-11 (CellTiter-Glo)
- Type: cell-based
- assay setup: Homo sapiens, MV4-11, 72 h, MV-4-11 cells, 3 days treatment, CellTiter-Glo; read-out: GI50
readout name: GI50 (nM)
Kindly provide the numeric value in nM only, without the unit symbol.

[[record]]
molecule = "CCN(C(=O)c1cc(F)ccc1Oc1nncnc1N1CC2(CCN(CC3CCN(C(=O)C(F)(F)F)CC3)CC2)C1)C(C)C [Compound 21]"
reported_measurement = 116


Now for a further molecule.
Q) Which GI50 value belongs to CCN(C(=O)c1cc(F)ccc1Oc1nncnc1N1CC2(CCN(CC3CCN(c4ccc(C#N)nn4)CC3)CC2)C1)C(C)C [Compound 47] ?
A) 3

====

- target entity: Recombinant human Menin protein (2-610) / MLL polypeptide binding (Homo sapiens (Human), UniProt O00255)
- experimental details: Menin and MLL protein binding at a molecular level (fluorescence polarization method)
- assay setup: inhibition of Menin / MLL polypeptide binding
readout name: pIC50
Expect pIC50 as a plain number equal to -log10 of the molar concentration.

Q) If you can, please state the reported pIC50 value of CCN(C(=O)c1cc(F)ccc1Oc1nncnc1N1CC2(CCN(CC3CCN(C(=O)Nc4ccccn4)CC3)CC2)C1)C(C)C [Compound 37] .
A) 7.86

Q) Using the record for CCN(C(=O)c1cc(F)ccc1Oc1nncnc1N1CC2(CCN(CC3CCN(c4cnccn4)CC3)CC2)C1)C(C)C [Compound 40] , report its pIC50.
A) 7.94

Q) Bench note: what pIC50 did CCN(C(=O)c1cc(F)ccc1Oc1nncnc1N1CC2(CCN(CC3CCN(c4nnc(OC)cc4C)CC3)CC2)C1)C(C)C [Compound 98] show?
A) 8.15

====

- Test system: MV-4-11 cells (human acute myelogenous leukemia cell line carrying MLL-AF4 mutation)
- experimental details: Cell proliferation assay, MV-4-11 (CellTiter-Glo)
- Type: cell-based
- assay setup: Homo sapiens, MV4-11, 72 h, MV-4-11 cells, 3 days treatment, CellTiter-Glo; read-out: GI50
readout name: log10 of GI50 (log10 of the value in nM)
Values reflect log10 of reported GI50 (nM).

[[record]]
compound = "CCN(C(=O)c1cc(F)ccc1Oc1nncnc1N1CC(C2(N(C)Cc3cc(C#N)n(C)n3)CC2)C1)C(C)C [Compound 146]"
target_entity = "MV-4-11 cells (human acute myelogenous leukemia cell line carrying MLL-AF4 mutation)"
readout_name = "log10 of GI50"
reported_measurement = 2.99


Q) Look at this compound and give its reported log10 of GI50. CCNC(=O)N1CCC(CN2CCC3(CC2)CN(c2ncnnc2Oc2ccc(F)cc2C(=O)N(CC)C(C)C)C3)CC1 [Compound 28]
A) 0.95

====

- Test system: MV-4-11 cells (human acute myelogenous leukemia cell line carrying MLL-AF4 mutation)
- experimental details: Cell proliferation assay, MV-4-11 (CellTiter-Glo)
- Type: cell-based
- assay setup: Homo sapiens, MV4-11, 72 h, MV-4-11 cells, 3 days treatment, CellTiter-Glo; read-out: GI50
Lab note: anything with GI50 below 20 nM is marked 1.0; values at 20 nM or higher are marked 0.0.

[[record]]
compound = "CCN(C(=O)c1cc(F)ccc1Oc1nncnc1N1CC2(CCN(Cc3ccc4c(cc(C(=O)O)n4CCO)c3C)CC2)C1)C(C)C [Compound 159]"
target_entity = "MV-4-11 cells (human acute myelogenous leukemia cell line carrying MLL-AF4 mutation)"
category = 0.0

[[record]]
compound = "CCN(C(=O)c1cc(F)ccc1Oc1nncnc1N1CC2(CCN(Cc3ccc4oc(C#N)cc4c3)CC2)C1)C(C)C [Compound 69]"
target_entity = "MV-4-11 cells (human acute myelogenous leukemia cell line carrying MLL-AF4 mutation)"
category = 1.0

[[record]]
compound = "COc1cc(N2CCC(CN3CCC4(CC3)CN(c3ncnnc3Oc3ccc(F)cc3-c3ccnn3C(C)C)C4)CC2)nnc1OC [Compound 101]"
target_entity = "MV-4-11 cells (human acute myelogenous leukemia cell line carrying MLL-AF4 mutation)"
category = 1.0


Q) For this compound, is GI50 lower than 20 nM? CCN(C(=O)c1cc(F)ccc1Oc1nncnc1N1CC2(CCN(CC3CCN(C(=O)NC4CCC4)CC3)CC2)C1)C(C)C [Compound 32]
A) 1.0

Q) Report whether reported GI50 is lower than 20 nM (strictly) for CCN(C(=O)c1cc(F)ccc1Oc1nncnc1N1CC2(CCN(CC3(N(C)C(=O)COC)CC3)CC2)C1)C(C)C [Compound 144]
A) 0.0
